system: Galium (catchweed bedstraw, Galium aparine); experiment: Test A postemergence; assay type: in vivo; settings: Postemergence, 500 g ai/ha; 0 to 100 scale where 0 is no effect and 100 is complete control
endpointLabel: Plant response rating, Galium
Note: the reply should be a number with no unit written.

GET /values?readout=Plant response rating, Galium&item= O=C1NCC(c2ccc(Oc3ccccc3)cc2)C1C(=O)Nc1ccccc1Cl (racemic) [Compound 538] 0

GET /values?readout=Plant response rating, Galium&item= O=C(Nc1ccccc1F)C1C(=O)N(C2C=CCCC2)CC1c1cccc(C(F)(F)F)c1 (stereo not drawn) [Compound 524] 0

GET /values?readout=Plant response rating, Galium&item= O=C1NCC(c2ccc(Oc3ccccc3)cc2)C1C(=O)Nc1cccc(F)c1F (racemic) [Compound 536] 0

GET /values?readout=Plant response rating, Galium&item= O=C(Nc1cccc(F)c1F)C1C(=O)N(CC=CCl)CC1c1cccc(C(F)(F)F)c1 (stereo not drawn) [Compound 485] 30

GET /values?readout=Plant response rating, Galium&item= CN1CC(c2ccccc2)C(C(=S)Nc2ccccc2F)C1=O (stereo not drawn) [Compound 471] 0

GET /values?readout=Plant response rating, Galium&item= Cc1cc(F)ccc1NC(=O)C1C(=O)N(C)CC1c1cccc(C(F)(F)F)c1 (stereo not drawn) [Compound 575] 70

GET /values?readout=Plant response rating, Galium&item= CN1CC(c2cccc(OC(F)F)c2)C(C(=O)Nc2ccccc2F)C1=O (stereo not drawn) [Compound 618] 60

GET /values?readout=Plant response rating, Galium&item= O=C1NCC(c2cc(C(F)(F)F)ccc2F)C1C(=O)Nc1cccc(F)c1F (stereo not drawn) [Compound 594] 20

GET /values?readout=Plant response rating, Galium&item= CN1CC(c2ccc(C(F)(F)F)cc2)C(C(=O)Nc2ccc(F)cc2F)C1=O (stereo not drawn) [Compound 625] 60
